testSystem: human ADAMTS-5 (Homo sapiens (Human))
Sequence (Q9UNA0 262-930): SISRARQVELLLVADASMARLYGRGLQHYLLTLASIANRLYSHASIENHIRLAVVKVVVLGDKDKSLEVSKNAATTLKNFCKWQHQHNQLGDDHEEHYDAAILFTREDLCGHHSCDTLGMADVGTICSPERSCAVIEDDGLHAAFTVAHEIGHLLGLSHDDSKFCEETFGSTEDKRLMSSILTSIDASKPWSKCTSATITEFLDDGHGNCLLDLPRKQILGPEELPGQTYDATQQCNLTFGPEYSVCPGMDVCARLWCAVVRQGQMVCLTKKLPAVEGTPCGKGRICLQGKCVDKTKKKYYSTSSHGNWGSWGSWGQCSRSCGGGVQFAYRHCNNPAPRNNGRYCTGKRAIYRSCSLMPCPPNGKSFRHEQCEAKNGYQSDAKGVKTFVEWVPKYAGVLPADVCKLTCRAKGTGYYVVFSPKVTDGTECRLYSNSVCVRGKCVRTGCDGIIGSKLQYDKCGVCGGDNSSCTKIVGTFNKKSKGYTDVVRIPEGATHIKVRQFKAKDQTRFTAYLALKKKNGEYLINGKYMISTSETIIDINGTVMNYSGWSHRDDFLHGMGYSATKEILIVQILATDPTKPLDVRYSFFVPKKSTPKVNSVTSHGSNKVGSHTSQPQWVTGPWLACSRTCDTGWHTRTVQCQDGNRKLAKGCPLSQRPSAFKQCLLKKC
method: hADAMTS-5 TBIS-1 cleavage assay, Protocol 2
Format: biochemical
experimentalSetup: Protocol 2, TBIS-1 substrate, 45 min at 37° C.; read-out: hADAMTS-5 potency IC50
The following compounds are shown together with reported IC50 values.

Solved entries:
1. CC1(CCC(=O)N2CCC(c3ccc(Cl)cc3)CC2)NC(=O)NC1=O (stereo not shown)
> 100 nM
2. CC1(CCC(=O)N2CCC(c3ccc(F)cc3)CC2)NC(=O)NC1=O (stereo not shown)
> 100 nM
3. CC1(CCC(=O)N2CCC(c3cccc(Cl)c3)CC2)NC(=O)NC1=O (stereo not shown)
> 100 nM
4. O=C1NC(=O)C(CCC(=O)N2CCC(c3ccccc3)CC2)(c2ccccc2)N1 (stereo not shown)
50 to 100 nM

[ask] // returns reported IC50 for input O=C1NC(=O)C(CCC(=O)N2CCC(c3ccccc3)CC2)(C2CC2)N1 (stereo not shown)
[reply] 50 to 100 nM

[ask] // returns reported IC50 for input O=C1NC(=O)[C@H](CCC(=O)N2CCC(c3ccccc3)CC2)N1
[reply] > 100 nM

[ask] // returns reported IC50 for input CC1(CCC(=O)N2CCC(c3ccccc3F)CC2)NC(=O)NC1=O (stereo not shown)
[reply] > 100 nM

[ask] // returns reported IC50 for input O=C1NC(=O)C(CCC(=O)N2CCC(c3ccccc3)CC2)(c2cccnc2)N1 (stereo not shown)
[reply] 50 to 100 nM

[ask] // returns reported IC50 for input O=C1NC(=O)C(CCC(=O)N2CCC(c3ccccc3)CC2)N1 (stereo not shown)
[reply] > 100 nM

[ask] // returns reported IC50 for input CC1(CCC(=O)N2CCC(c3ccccc3)CC2)NC(=O)NC1=O (stereo not shown)
[reply] > 100 nM

[ask] // returns reported IC50 for input Cc1cccc(C2CCN(C(=O)CCC3(C)NC(=O)NC3=O)CC2)c1 (stereo not shown)
[reply] > 100 nM

[ask] // returns reported IC50 for input CC1(CCC(=O)N2CCC(c3cccc(F)c3)CC2)NC(=O)NC1=O (stereo not shown)
[reply] > 100 nM

[ask] // returns reported IC50 for input CC1(CCC(=O)N2CCC(c3cc(Cl)cc(Cl)c3)CC2)NC(=O)NC1=O (stereo not shown)
[reply] 50 to 100 nM

[ask] // returns reported IC50 for input CC(C)C1(CCC(=O)N2CCC(c3ccccc3)CC2)NC(=O)NC1=O (stereo not shown)
[reply] 50 to 100 nM

[ask] // returns reported IC50 for input Cc1ccc(C2CCN(C(=O)CCC3(C)NC(=O)NC3=O)CC2)cc1 (stereo not shown)
[reply] > 100 nM

[ask] // returns reported IC50 for input COc1ccccc1C1CCN(C(=O)CCC2(C)NC(=O)NC2=O)CC1 (stereo not shown)
[reply] > 100 nM

Values were extracted from patent US10550100B2.
